Test: yeast display, Sf9 membrane polyspecificity reagent, FACS + sequencing; frameworks hold sequencing errors

ordered residues	polyreactivity (PSR sort gate)
QVQLVESGGGLVQAGGSLRLSCAASGRTFTVYTMGWYRQAPGKERELVAVISTGGRTYYADSVKGRFTISRDNAMNTVYLQMNSLKPEDTAVYYCAAKFTREYYWGQGTQVTVSS	high polyreactivity
QVQLVESGGGLVQAGGSLRLSCSASGSTIRDYAMGWYRQAPGKERELVAVIDNSGGRTYYADSVKGRFTISRDNAKNTVYLQMNSLKPEDTAVYYCNTRRIAQYGYWGQGTEVTVSS	high polyreactivity

----------
Assay: yeast display, Sf9 membrane polyspecificity reagent, FACS + sequencing; frameworks hold sequencing errors

ordered residues	polyreactivity (PSR sort gate)
QVQLVESGGGLVQAGGSLRLSCAASGRIFKRNAMGCYRQAPGKERELVATIDWSGGSTYYADSVKGRFTISRDNAKNTVYLQMNSLKPEDTAVYYCAAASGRWNKYGYWGQGTQVTVSS	low polyreactivity
QVLLVESGGGLVQSGRSLRLSCAASGLIFSRYAMGWYRPAPGKERELVAAITSGTSTYYADSVKGRFTISRDNAKNTVYLQLNSLIPEDTAVYYCAARWLTFNARYYPYYYWGQGTQVTVSS	high polyreactivity
QVQLVESGGGLVQAGGSLRLSCAASGSIFSSYAMGWDRQAPGKERELVAAISSGGGSTYYADSVKGRFTISRDNAKHTVYLQMNSLKPEDTAVYYCNAGKEALKTTYTYDYWGQGTQVTVSS	high polyreactivity
QVQLVESGGGLVQAGGSLRLSCAASGSTFWTNAMGWYRQAPGKERQLVAASTEDGGSTYYADSVKGRFTISRDNAKNTVYLQMNSLKREVTAVYYCATVIGYLDDYLFPYPVPYYYWGQGTQVTVSS	low polyreactivity
QVQLVESGGGLVQAGGSLRLSCAASGSIFFDYAMGWDRQAPGKERQLVAAISWTGGSTYYADSVKGRFTISRDNAKNTVYLQMNSLKPEDTAVYYCNARYYSYSSPYDYWGQGTQVTVSS	high polyreactivity
QVQVVESGGGLVQAGGSLRLSCAASGFTFYPNAMGWYRQAPGKERELVATITGSGGSTNYADSVKGRFPISRDTAQNTVYLQMNSLKPEDTAVYYCAADYAVYSFTDFNYWGQGTQVTVSS	high polyreactivity
QVQLVESGGGLVQAGGSLRLSCAASGNIFAYYAMGWYRQAPGKEREFVAAIRSSGVSTYYADSVKGRFTISRDNAKNTVYLQMNSLKPEDTAVYYCAADSITGGWLIVSPPYNYTYDYWGQGTQVTVSS	low polyreactivity
QVQLVESGGGLVQAGGSLRLSCAASGRIFGSYAMGWYRQAPGKERELVAAISWRGTSTYYADSVKGRFTISRDNAKNTVYLQMNSLKPEDTAVYYCAARGLWPYDYWGQGTQVTVSS	low polyreactivity
QVQLVESGGGLVQAGGSLRLSCAASGRTFYAYAMGWYRQAPGKDRELVAAITLSTGTTYYADSVKGRFTISRDNAKNTVYLQMNSLKPADTAVYYCAVEGYWYAGWYAMDYWGQGTQVTVSS	low polyreactivity
QVQLVESGGGLVQSGGSLRLSCAASGLIFPYYAMGWYRQAPGKERELVAAITGNGGRTYYADSVKGRFTISRDNAKYNVYLQMNSLKPEDTAVYYCAAAGKASSDYYVLGGYWGQGTQVTVSS	high polyreactivity
QDQHVESGGGLVQAGGSLRLSCAASGSIFWYYAMGWYRQEPGKERELVAAISRSGGSTYYADSVKGRFTISRDNAKNTVYLEMNSLKPEDTAVYYCAAGYSSLRRFGVYYWGQGTQVTVSS	high polyreactivity

Reference source: the nanobody polyreactivity screen of Harvey et al. (2022)
